experimental target: T1, THD1 L400A (UniProt P26039 1-405, L400A)
T1 construct: talin-1 (TLN1) head domain, residues 1-405, L400A; source: E. coli (DE3) Rosetta 2, purified (IMAC, SEC); not shown: His10-SUMO, N-terminal, cleaved
T1 sequence (P26039 1-405 L400A): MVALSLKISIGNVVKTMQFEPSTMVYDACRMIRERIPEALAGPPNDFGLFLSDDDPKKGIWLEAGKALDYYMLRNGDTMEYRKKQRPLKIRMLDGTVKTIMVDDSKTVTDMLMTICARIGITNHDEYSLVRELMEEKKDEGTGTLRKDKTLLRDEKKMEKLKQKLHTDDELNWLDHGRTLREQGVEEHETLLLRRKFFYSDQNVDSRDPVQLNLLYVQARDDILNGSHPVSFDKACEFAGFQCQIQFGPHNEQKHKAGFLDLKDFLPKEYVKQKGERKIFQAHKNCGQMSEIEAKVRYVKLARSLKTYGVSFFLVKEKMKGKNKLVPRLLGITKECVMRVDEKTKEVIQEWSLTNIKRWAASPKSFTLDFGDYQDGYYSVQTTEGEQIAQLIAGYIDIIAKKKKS
protocol description: MST; unlabelled protein titrated to 50-200 nM ATTO 488-labelled β-CT peptide, no third protein; 20 mM Tris pH 7.5, 200 mM NaCl, 1 mM TCEP, 0.05% Tween-20; Kd of individual titrations (in S0002 mean and sd, n = 2)
condition info: both partners purified
No end group written: not given here.

binder	Kd
{ATTO 488}-KLLITIHDRKEFAKFEEERARAKWDTANNPLYKEATSTFTNITYRGT (peptide, UniProt O54890 741-787, looked up, integrin β3 cytoplasmic tail (β3-CT); source: synthetic peptide (MPIB Core Facility)) [ATTO 488-labeled integrin β3 cytoplasmic tail (488–β3-CT)]	190 µM
